Biological target: Recombinant human PDK1 enzyme (aa 52-556) (Homo sapiens (Human), UniProt O15530)
Sequence (O15530 52-556): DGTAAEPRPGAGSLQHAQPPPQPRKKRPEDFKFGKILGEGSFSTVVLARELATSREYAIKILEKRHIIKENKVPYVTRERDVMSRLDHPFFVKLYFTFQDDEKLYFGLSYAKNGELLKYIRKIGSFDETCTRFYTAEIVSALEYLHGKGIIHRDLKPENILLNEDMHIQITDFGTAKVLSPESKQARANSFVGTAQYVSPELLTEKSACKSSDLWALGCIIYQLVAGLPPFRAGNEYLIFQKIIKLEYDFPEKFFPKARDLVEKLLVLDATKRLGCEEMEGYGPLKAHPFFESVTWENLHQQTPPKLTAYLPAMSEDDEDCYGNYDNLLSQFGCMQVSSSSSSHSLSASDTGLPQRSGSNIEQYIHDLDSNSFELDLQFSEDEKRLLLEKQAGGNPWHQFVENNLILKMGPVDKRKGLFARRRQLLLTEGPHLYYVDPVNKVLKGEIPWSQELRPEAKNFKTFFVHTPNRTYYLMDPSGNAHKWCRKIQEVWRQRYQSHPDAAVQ
Test: PDK1 kinase assay
Details: in vitro kinase assay, His6-PDK1 (aa 52-556), PDKtide, P33-ATP
ASSAY_METRIC: IC50 (nM)

Solved cases (4 shown):
{"MOLECULE": "CNc1ncnc2ccc(C#CCNC(=O)c3cccn(Cc4ccsc4)c3=O)cc12", "UNIT_ANNOTATION": "nM", "IC50": 199}
{"MOLECULE": "CNc1c([N+](=O)[O-])cnc2ccc(C#CCNC(=O)c3cncn(Cc4ccc(F)c(F)c4)c3=O)cc12", "UNIT_ANNOTATION": "nM", "IC50": 98}
{"MOLECULE": "C[C@H](c1ccc(F)c(F)c1)n1cccc(C(=O)NCC#Cc2ccc3ncc(NC4CCN(C)CC4)nc3c2)c1=O", "UNIT_ANNOTATION": "nM", "IC50": 2}
{"MOLECULE": "O=C(NCC#Cc1ccc2ncnc(N3CC[C@H](O)C3)c2c1)c1cccn(Cc2ccc(F)c(F)c2)c1=O", "UNIT_ANNOTATION": "nM", "IC50": 114}

P: O=C(NCC#Cc1ccc2nccc(OCC3CCOC3)c2c1)c1cccn(C(CO)c2ccc(F)c(F)c2)c1=O (stereo not shown)
Q: CN(C)CCCNC(=O)c1cnc2ccc(C#CCNC(=O)c3cncn(Cc4ccc(F)c(F)c4)c3=O)cc2c1
R: CCN1CCC(Nc2cnc3ccc(C#CCNC(=O)c4cccn(Cc5ccc(F)c(F)c5)c4=O)cc3n2)CC1
Query :: Please order the records by their reported IC50, lowest number first. Labels, ranked as asked.
Result :: R, P, Q

* * *

Molecular target: Recombinant human PDK1 enzyme (aa 52-556) (Homo sapiens (Human))
Test: PDK1 kinase assay
Settings: in vitro kinase assay, His6-PDK1 (aa 52-556), PDKtide, P33-ATP
ASSAY_METRIC: IC50 (µM)

Solved cases (3 shown):
{"COMPOUND": "O=C(NCC#Cc1ccc2nccc(C3=CCNCC3)c2c1)c1cncn(Cc2ccc(F)c(F)c2)c1=O", "UNIT_ANNOTATION": "µM", "IC50": 0.086}
{"COMPOUND": "O=C(NCC#Cc1ccc2nccc(OCC3CCCO3)c2c1)c1cncn(Cc2ccc(F)c(F)c2)c1=O (centres unmarked)", "UNIT_ANNOTATION": "µM", "IC50": 0.156}
{"COMPOUND": "O=C(NCC#Cc1ccc2ncnc(NCC(O)c3ccccc3)c2c1)c1cncn(Cc2ccc(F)c(F)c2)c1=O (centres unmarked)", "UNIT_ANNOTATION": "µM", "IC50": 0.184}

I: O=C(NCC#Cc1ccc2ncnc(NC3CCN(CCO)CC3)c2c1)c1cncn(Cc2ccc(F)c(F)c2)c1=O
II: CN(Cc1ccccc1)c1c(C#N)cnc2ccc(C#CCNC(=O)c3cccn(Cc4ccc(F)c(F)c4)c3=O)cc12
III: N#Cc1cnc2ccc(C#CCNC(=O)c3cccn(Cc4ccc(F)c(F)c4)c3=O)cc2c1NCCc1ccccc1
IV: CN1CCC[C@@H](COc2ccnc3ccc(C#CCNC(=O)c4cccn(Cc5cc(F)c(F)c(F)c5)c4=O)cc23)C1
V: O=C(NCC#Cc1ccc2nccc(OC3CCNCC3)c2c1)c1cncn(Cc2ccc(F)c(F)c2)c1=O
Query :: Please order the records by their reported IC50, lowest number first. Labels, ranked as asked.
Result :: IV, V, I, II, III

* * *

Target: Recombinant human PDK1 enzyme (aa 52-556) (Homo sapiens (Human))
Assay: PDK1 kinase assay
Settings: in vitro kinase assay, His6-PDK1 (aa 52-556), PDKtide, P33-ATP
ASSAY_METRIC: IC50 (nM)

{"COMPOUND": "CNc1ncnc2ccc(C#CCNC(=O)c3cc(NCCN(C)C)nn(Cc4ccc(F)c(F)c4)c3=O)cc12 [II-57]", "IC50 / nM": 357}
{"COMPOUND": "O=C(CNc1ncnc2ccc(C#CCNC(=O)c3cncn(Cc4ccc(F)c(F)c4)c3=O)cc12)c1ccccc1 [II-16]", "IC50 / nM": 218}
{"COMPOUND": "CC1(CNc2ncnc3ccc(C#CCNC(=O)c4cccn(Cc5ccc(F)c(F)c5)c4=O)cc23)COC1 [II-36]", "IC50 / nM": 468}

1: CN1CC(Nc2ncnc3ccc(C#CCNC(=O)c4cncn(Cc5ccc(F)c(F)c5)c4=O)cc23)C1 [II-2]
2: O=C(NCC#Cc1ccc2ncc(C(=O)N3CCNCC3)cc2c1)c1cncn(Cc2ccc(F)c(F)c2)c1=O [II-83]
3: O=C(NCC#Cc1ccc2ncnc(C3=CCNCC3)c2c1)c1cncn(Cc2ccc(F)c(F)c2)c1=O [II-67]
4: CNC(=O)c1cnc2ccc(C#CCNC(=O)c3cncn(Cc4ccc(F)c(F)c4)c3=O)cc2c1 [II-72]
5: CN(c1ncnc2ccc(C#CCNC(=O)c3cncn(Cc4ccc(F)c(F)c4)c3=O)cc12)C(C)(C)C [II-19]
Query :: List from greatest to least IC50. Labels, ranked as asked.
Result :: 5, 2, 1, 3, 4

* * *

Biological target: Recombinant human PDK1 enzyme (aa 52-556) (Homo sapiens (Human))
Experiment: PDK1 kinase assay
Conditions: in vitro kinase assay, His6-PDK1 (aa 52-556), PDKtide, P33-ATP
ASSAY_METRIC: IC50 (nM)

Solved cases (3 shown):
{"COMPOUND": "CN(C)CCSc1cnc2ccc(C#CCNC(=O)c3cncn(Cc4ccc(F)c(F)c4)c3=O)cc2n1", "MEASURED": 17}
{"COMPOUND": "CN1CCC(NC(=O)c2cnc3ccc(C#CCNC(=O)c4cncn(Cc5ccc(F)c(F)c5)c4=O)cc3c2)C1 (centres unmarked)", "MEASURED": 24}
{"COMPOUND": "CCN(CC)c1ncnc2ccc(C#CCNC(=O)c3cc(Cl)nn(Cc4ccc(F)c(F)c4)c3=O)cc12", "MEASURED": 8}

a: CN1CCCC(COc2ccnc3ccc(C#CCNC(=O)c4cccn(Cc5ccc(F)c(F)c5)c4=O)cc23)C1 (centres unmarked)
b: CN1CCC(Cc2cnc3ccc(C#CCNC(=O)c4cncn(Cc5ccc(F)c(F)c5)c4=O)cc3n2)CC1
Query :: Returns: the label, a or b , whose recorded IC50 is the lower number. // return label of chosen record
Result :: a
(a: 5 nM, b: 940 nM)

* * *

Molecular target: Recombinant human PDK1 enzyme (aa 52-556) (Homo sapiens (Human), UniProt O15530)
Experiment: PDK1 kinase assay
Details: in vitro kinase assay, His6-PDK1 (aa 52-556), PDKtide, P33-ATP
pIC50: −log10 of the molar value.
ASSAY_METRIC: pIC50

Solved cases (3 shown):
{"COMPOUND": "CN(C)C(=O)c1cnc2ccc(C#CCNC(=O)c3cncn(Cc4ccc(F)c(F)c4)c3=O)cc2c1", "pIC50": 6.45}
{"COMPOUND": "O=C(NCC#Cc1ccc2ncc(C(=O)N3CCOCC3)cc2c1)c1cncn(Cc2ccc(F)c(F)c2)c1=O", "pIC50": 6.27}
{"COMPOUND": "O=C(NCC#Cc1ccc2ncc(O)cc2c1)c1cncn(Cc2ccc(F)c(F)c2)c1=O", "pIC50": 7.07}

A: O=C(NCC#Cc1ccc2ncc(OC3CCNCC3)cc2c1)c1cncn(Cc2ccc(F)c(F)c2)c1=O
B: NC1CCC(Nc2cnc3ccc(C#CCNC(=O)c4cncn(Cc5ccc(F)c(F)c5)c4=O)cc3n2)C1 (centres unmarked)
Query :: Returns: the label, A or B , whose recorded pIC50 is the lower number. // return label of chosen record
Result :: A

* * *

Target: Recombinant human PDK1 enzyme (aa 52-556) (Homo sapiens (Human))
Experiment: PDK1 kinase assay
Conditions: in vitro kinase assay, His6-PDK1 (aa 52-556), PDKtide, P33-ATP
ASSAY_METRIC: IC50 (nM)

Solved cases (3 shown):
{"MOLECULE": "CC(CNc1ncnc2ccc(C#CCNC(=O)c3cncn(Cc4ccc(F)c(F)c4)c3=O)cc12)c1ccccc1 (stereo not shown)", "UNIT_ANNOTATION": "nM", "IC50": 445}
{"MOLECULE": "O=C(NCC#Cc1ccc2nccc(OC[C@@H]3CCCNC3)c2c1)c1cccn(Cc2ccc(F)c(F)c2)c1=O", "UNIT_ANNOTATION": "nM", "IC50": 4}
{"MOLECULE": "O=C(NCC#Cc1ccc2ncc(N[C@H]3CC[C@H](N4CCN(CC5CC5)CC4)CC3)nc2c1)c1cccn([C@H](CO)c2cccc(F)c2)c1=O", "UNIT_ANNOTATION": "nM", "IC50": 2}

P: CN(Cc1cccc2ncccc12)c1ncnc2ccc(C#CCNC(=O)c3cccn(Cc4ccc(F)c(F)c4)c3=O)cc12
Q: O=C(NCC#Cc1ccc2ncc(NC3CCNCC3)nc2c1)c1cncn(Cc2ccc(F)c(F)c2)c1=O
Query :: Param pair: P , Q . Output: the one whose IC50 is numerically greater. // return label of chosen record
Result :: P

a: Cc1n[nH]cc1-c1ccnc2ccc(C#CCNC(=O)c3cncn(Cc4ccc(F)c(F)c4)c3=O)cc12
b: CC(C)=Cc1cnc2ccc(C#CCNC(=O)c3cncn(Cc4ccc(F)c(F)c4)c3=O)cc2n1
Query :: Param pair: a , b . Output: the one whose IC50 is numerically greater. // return label of chosen record
Result :: b
